Reference for the values: paper doi:10.1101/2021.08.01.454623

target: CL11 (ribosomal protein L11 C-terminal domain, wild type) (Bacillus stearothermophilus, UniProt P56210 59-133); assay: SPR
Sequence (P56210 59-133): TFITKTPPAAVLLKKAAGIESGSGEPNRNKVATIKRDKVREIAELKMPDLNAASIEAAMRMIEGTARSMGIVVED
pKd: −log10 of the molar value.
observation type: pKd

binder	reported result
biotinylated 58rRNA (structured_RNA) RNA: GCCAGGAUGUAGGCUUAGAAGCAGCCAUCAUUUAAAGAAAGCGUAAUAGCUCACUGGU	8.62
